Each item that follows carries a reported pIC50.
# system_under_test: SARS-CoV-2 main protease (Mpro) (Severe acute respiratory syndrome coronavirus 2, UniProt P0DTD1)
# measurement_description: biochemical
No end group written: not given here.
The meaning of pIC50 here: minus log10 of the concentration in molar units.

A selection of reference data follows.
1. SAYWQWFSKFLGRIL-NH2 [TLP-2]	4.94
2. SAFWQWFSKFLGR-NH2 [TLP-3]	5.15
3. FVQWFSKFLGRIL-NH2 [Temporin L, reference compound]	4.41

Next substance, please.
Annotate the substance FLQWFSKFLGRIL-NH2 [TLP-1] with its measured pIC50.
4.94
